assay-text: yeast display, Sf9 membrane polyspecificity reagent, FACS + sequencing; frameworks hold sequencing errors
measure: polyreactivity (PSR sort gate)

sequence-data | polyreactivity (PSR sort gate)
QVQLVESGGGLVQAGGSLRLSCAASGFTFKKNAMGWYRPAPGKERELVAAISRSGGITYYADSVKGRFTISRDNAKNTVYLQMNSLKPEDTAVSYCATQTYRTPAYPAYGYWGQGTQVTVSS | high polyreactivity
QVQLVESGGGLVQAGGSLRLSCAASGGTFSKYAMGWYRQAPGKEREFVAAITVSGGGTYYADSVKGRFTISRDNAKNPVYLQMNSLKPEDTAVYYCAADLAWTASDYWGHGTQVTVSS | low polyreactivity
QVQLVESGGGLVQAGGSLRLSCAASGSIFAAYAMGWYRQAPGKERELVAVINSRGGITSYADSVKGRFTISRDNAKNTVYLQMNSLKPEDTAVYYCAARPWYSWRYDYWGQGTQVTVSS | high polyreactivity
QVQLVESGGRLVQAGGSLRLSCAASGYTYDRYAMGWYRQAPGKERQLVAAISSSGTSTYYADSVKGRFTISRDNEKNTVYLQMNSLKPEDTAVYYCAATRLKLKFAYWGQGTQVTVSS | high polyreactivity
QVQLVESGGGLVQAGGSLRLSCAAAGLISIRILMGWYRQAPGKERELVAGITSTGSTSYADSVKGRFTSSRDNAKNTVYLQMNSLKPEDTAVYYCNTKGSRPGIWPTTSGYWGHGTQVTVSS | high polyreactivity
QVQLVESGGGLVQAGGSLRLSCAASGSIFGFYAMGWYRQAPGKERELVAGISYGDSSTYYADSVKGRFTISRDNAKNTVYLQMNSLKPEDTAVYYCAAGHRQKYNWGRYDYWGQGTQVTVSS | low polyreactivity
QVQLVESGGGLVQAGGSLRLSSASSGRIFAIYVMGWYRQAHGKERELVAAITSGGNTNYADSVKGRFTISRDNAKNTVYLQINSLKPEDSAVYYCAAFYYRRSFTLSYSSFDYWGQGTQVTVSS | low polyreactivity
QVQLEESGGGLVQAGGSLRLSCAASGLIYSSYAMGWYRQAPGKERELVAAIRSGGNTNYADSVKGRFTISRDNAKNTVYLQMNSLKPEDTAVYYCADGTYSRPYYRTFDHWGQGTQVTVSS | low polyreactivity

## Input Report polyreactivity (PSR sort gate) for QVQLVESGGGLVQAGGSLPLSCAASGRTYRYYAMGWYRQAPGKERELVAAITRRSGNTNYADSVKGRFTISRDNAKNTVYLQINSLKPEDTALYYCAAVGAKGARYDYWGQGTQVTVSS please.
## Output high polyreactivity

## Input Report polyreactivity (PSR sort gate) for QVQLVESGGGLVQAGGSLRLSCAASGYTFVGYAMGWYRQAPGKERELVASISTGDSTYYADSVKGRFTISRDNAKNTVYLQMNSLKPEDTAVYYCAADFWEYEYPYDYWGQGTQVTVSS please.
## Output low polyreactivity

## Input Report polyreactivity (PSR sort gate) for QVQLVESGGGLVQAGGSLRLSCAASGRIFRKYAMGWYRQAPGKERELVAAINWSGGSTYYADSVKGRFTISRDNAKNTVYLQMNSLKPEDTAVYYCAARSPKAERDYWGQGTQVTVSS please.
## Output high polyreactivity

###

assay-text: yeast display, Sf9 membrane polyspecificity reagent, FACS + sequencing; frameworks hold sequencing errors

sequence-data | polyreactivity (PSR sort gate)
QVQLVESGGGLFQAGGSLRLSCAASGFIFQYYDMGWYRQAPGKERELVAAINYSGGNTYYADSVKGRFTISRDNAKNTVYLQLNILKPEDSEVFYCAAAPSVSCTRLYEYWGQGTQVTVSS | high polyreactivity
QVQLVESGGGLVQAGGSLRLSCAASGRTFSIYAMGCYRQAPGKEREFVAAIRDRGTSTYYADSVKGRFTISRDNAKNTVYLQMNSLKPEDTGVFYCAAVRPYKYQDRDYWGQGTQVTVSS | high polyreactivity

###

assay-text: yeast display, Sf9 membrane polyspecificity reagent, FACS + sequencing; frameworks hold sequencing errors
measure: polyreactivity (PSR sort gate)

Worked set:
sequence-data | measured-value
QVQLVESGRGIVQAGGSLRLSCAASGLSFSNYAMGWYRQAPGKERELVARITTSGGRTYYADSVKGRFTISRDNANNTEYLKMNSLKPEDTAVYYCAANNRRRPSYDYDSWGQGTQVTVSS | low polyreactivity
QVQLVESGGGLVQAGGSLRLSCAASGFIFRGNAMGWYRQAPGKERELVASISRTGDTTYYADSVKGRFTISRDNAKNTVYLQMNSLKPEDTAVYYCARRSRVGYPLDSWGQGTQVTVSS | high polyreactivity
QVQLVESGGGLVQAGGSLRLSCAASGSTFRRNAMGWYRQAPGKERELVAAITWRGGSTSYADSVKGRFTISRDNAKNTVYLQMNSLKPEDTGVYYCAAVKGHSQVLSYGYWGQGTQVTVSS | low polyreactivity
QVQLVESGGGLVQAGGSLRLSCAASGRIFTHYAMGWYRQAPGKERELVAAISRTGGTTNYADSVKGRFTISRDNAKNTVYLQMNSLKPEDTADYYCAAVGKGAKDYFKYYSWGQGTQVTVSS | high polyreactivity

## Input Report polyreactivity (PSR sort gate) for QVQLVESGGGLVQAGGSLRLSCAASGRIFRKYVMGWYRQAPGKERELVASITTSGDSTYYADSVKGRFTISRDNAKNTVYLQMNSLKPEDTAVYYCAARSYRGRRYDYWGQGTQVTVSS please.
## Output high polyreactivity

###

assay-text: yeast display, Sf9 membrane polyspecificity reagent, FACS + sequencing; frameworks hold sequencing errors
measure: polyreactivity (PSR sort gate)

Worked set:
sequence-data | measured-value
QVQLVESGGGLVQAGGSLRLSCAASGYTIRYNALGWYRQAPGKERELVAAITQRSGSTYADSVKGRFTISRDNAKNTVYLQMNSLKPEDTAVYYCAARTPGYKLYDYWGQGTQVTVSS | low polyreactivity
QVQLVESGGGLVQAGGSLRSSCAASGSIFQYYALGWYRQAPGNERELVAAISSGGRTNYADSVKGRFTISRDNAKNTVYLQMNSLKPEDTAVYYCAAARYYYQVYRWEYDYWGQGTQVTVSS | high polyreactivity
QVQLVESGGGLVQAGGSLRLSCAASGRTLHAYTMGWYRQAPGKERELVAAITRGGGNTYYADSVKGRFTISRDNAKNTVYLQMNSLKPEDTAVYYCAKDYGYQGHTRTLYWAYLEYDYWGQGTQVTVSS | low polyreactivity
QVQLVESGGGLVQAGGSLRLSCAASGSIFQLNAKGWYRQAPGKERELVAAITWSGDSTYYADSVKGRFTISRDNAKNTVYLQMNSLKPEDTAVYYCAADVLTTPPPREFEYWGQGTQVTVSS | high polyreactivity
QVQLVESGGGLVQAGGSLRLSCAASGSIFKRYAMGWYRQAPGKERELVAAISWSGGNTYYADSVKGRFTISRDNAKNTVYLQMNSLKPEDTAVYYCAALHRVGYSEYGYWGQGTQVTVSS | high polyreactivity

## Input Report polyreactivity (PSR sort gate) for QVQLVESGGGLVQAGGSLRLSCAASGSIFFDYAMGGYRQAPGKERELVAAINSGGTTNYADSVKGRFTISRDNAKNTVYLQMKQPETGRYRGLLLQRFPGYLRWYRWFDYWGQGTQVTVSS please.
## Output low polyreactivity

## Input Report polyreactivity (PSR sort gate) for QVQLVESGGGLVQAGGSLRLSCAASGRIFLRNAMGWYRQAPGKERELVAGINSGGSTYYADSVKGRFTISRDNAKNTVYLQMNSLKPEDTAVYYCAADDGNFLSEDRDSYYGYDYWGQGTQVTVSS please.
## Output low polyreactivity

###

assay-text: yeast display, Sf9 membrane polyspecificity reagent, FACS + sequencing; frameworks hold sequencing errors
measure: polyreactivity (PSR sort gate)

sequence-data | polyreactivity (PSR sort gate)
QVQLVESGGGLVQAGGSLRLSCAASGFTFSFYAMGWYRQAPGKERELVAVISRSGGGTYYADSVKGRFTISRDNAKHTVYLQMNSLKPEDTAVYYCAARLGNRRYDYWGQGTQVTVSS | high polyreactivity
QVQLVESGGGLVQAGGSLRLSCAASGIIFIPYAMGWYRQAPGKEREFVAAISSSGGSTYYADSVKGRFTISRDNAKNTVYLQMNSLKPEDTSVYYCAAQYVSRRYSRYNYWGQGTQVTVSS | high polyreactivity
QVQLVESGGGLVQAGGSLRLSCAASGRIFGYYTMGWYRQAPGKERELVAAINGRGTSTYYADSVKGRFTISRDNAKNTVYLQMNSLKPEDTAVYYCAAGGWGPTRAYDYWGQGTQVTVSS | high polyreactivity
QVQLVESGGGLVQAGGSLRLSCAASGSTFDPYAMGCYRQAAGKEREFVAYIDSSVGSTFYADSVKGRFTISRDNAKNTVYLQMNSLKPEDTAVYYCAAASRVAKGRWRLYDYWGQGTQVTVSS | high polyreactivity
QVQLVESAGGIVQAGGSLRLSCAASGITFPGNAMGWYRPAPGKERELVAAIDCYGGSTYYADTVKGRFTISRDNAKNTVYLQLNSLKPEDTAVYYCATDEYFSYYGYFLDAYWGQGTQVTLSS | low polyreactivity
QFQLVESGGGLVQAGGSLRLSCAASGSTLELNAMGWYIQAPGKERELVAAITSSGGRTYYADSVKGRFTISRDNAKNTVYLQMNSLKPEDTAVYYCAAEPGQHRVVDRYDYWGQGTQVTVSS | low polyreactivity
QVQLVESGGGLVQAGGSLRLSCAASGLIFVANAMGWYRQAPGKERELVAAISRSGGITYYADSVKGRFTISRDNAKNTVYLQMNSLKPQDTAVYYCAKTLPSNGHYDYWGQGTQVTVSS | low polyreactivity
QVQLVESGGGLVQAGGSLRLSCAPAGRTFNGYAMGWYRQAPGKERELVASITLRGGSTYYADSVKGRFTISRDNAKNTVYLQMNSLKPEDTAVYYCNARPHTRRYTFTYGYWGQGTQVTVSS | high polyreactivity
QVQLVESGGGLVQAGGSLRLSCAASGSTLYFNAMGWYRQAPGKERELVATITSGGSTYYADSVKGRFTISRDNAKNTVYFQMNSLKPEDTAVYYCNADFGSYATNGMTPLYDYWGQGTQVTVSS | high polyreactivity
QVQLVESGGGLVQAGGSLRLSCAASGITFYGNDMGGYRQAPGKERELVAAISYSGGSTYYADSVKGRFTISRDNAKNTVYLQMNSLKPEDNAGYYCAVEGTKLYEYYWGQVTQVTVSS | low polyreactivity

## Input Report polyreactivity (PSR sort gate) for QVQLVESGGGLVQAGGSLRLSCAASGSTSQSNAMGWYRQAPGKERELVAAISWSGTSTYYADSVKGRFTISRDNAKNTVYLQMNSLNPEDSAVYYCAADYIFDYDYWGQGTQVTVSS please.
## Output low polyreactivity

Where do the numbers come from? From the nanobody polyreactivity screen of Harvey et al. (2022).
